TGT: TNIK (Homo sapiens, UniProt Q9UKE5)
Construct: purchased Promega V4158
Sequence (Q9UKE5 1-367 limits assumed): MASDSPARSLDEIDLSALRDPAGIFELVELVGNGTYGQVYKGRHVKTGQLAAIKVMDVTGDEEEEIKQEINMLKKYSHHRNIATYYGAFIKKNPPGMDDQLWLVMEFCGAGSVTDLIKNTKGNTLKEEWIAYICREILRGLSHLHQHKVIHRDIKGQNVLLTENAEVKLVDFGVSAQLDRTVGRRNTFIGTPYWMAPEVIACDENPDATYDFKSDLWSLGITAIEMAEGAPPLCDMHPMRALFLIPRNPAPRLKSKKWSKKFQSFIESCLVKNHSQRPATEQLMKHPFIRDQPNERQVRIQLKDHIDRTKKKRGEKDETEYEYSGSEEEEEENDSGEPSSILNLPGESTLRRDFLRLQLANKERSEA
ASSAY EXPLANATION: ADP-Glo Kinase Assay, inhibition activity on TNIK
Type: biochemical
CONDITION DESCRIPTION: read-out: TNIK
RECORDED ENDPOINT: IC50

{"CPD SMILES": "N#Cc1cccc(-c2ccc(NC(=O)c3ccccc3)c3c2CNC3=O)c1", "RECORDED ENDPOINT": "IC50", "READING": "> 20 µM"}
{"CPD SMILES": "Cc1ccsc1C(=O)Nc1ccc(-c2ccccc2)c2c1C(=O)NC2", "RECORDED ENDPOINT": "IC50", "READING": "> 20 µM"}
{"CPD SMILES": "O=C(Nc1ccc(Nc2cc(C(F)(F)F)cc(C(F)(F)F)c2)c2c1C(=O)NC2)c1ccc(NCCN2CCCCC2)cc1", "RECORDED ENDPOINT": "IC50", "READING": "> 20 µM"}

---

Measured pIC50 by item
TGT: TNIK (Homo sapiens, UniProt Q9UKE5)
Construct: purchased Promega V4158
ASSAY EXPLANATION: ADP-Glo Kinase Assay, inhibition activity on TNIK
Assay type: biochemical
CONDITION DESCRIPTION: read-out: TNIK
pIC50: −log10 of the molar value. Structures can show the parent of a compound that is named as a salt.
RECORDED ENDPOINT: pIC50

{"COMPOUND": "O=C(Nc1ccc(Nc2cc(C(F)(F)F)cc(C(F)(F)F)c2)c2c1C(=O)NC2)c1ccc(NCCN2CCCC2)cc1", "RECORDED ENDPOINT": "pIC50", "READING": "< 4.70"}
{"COMPOUND": "N#Cc1ccc(C(=O)Nc2ccc(-c3ccccc3)c3c2C(=O)NC3)cc1", "RECORDED ENDPOINT": "pIC50", "READING": "< 4.70"}
{"COMPOUND": "COc1ccc(-c2ccc(NC(=O)c3ccc(NC(C)=O)cc3)c3c2CNC3=O)cc1", "RECORDED ENDPOINT": "pIC50", "READING": "< 4.70"}
{"COMPOUND": "O=C(Nc1ccc(Sc2ccccc2)c2c1C(=O)NC2)c1ccc(F)cc1", "RECORDED ENDPOINT": "pIC50", "READING": "< 4.70"}
{"COMPOUND": "O=C(Nc1ccc(-c2ccncc2)c2c1C(=O)NC2)c1ccccc1 [Example 128, hydrochloride]", "RECORDED ENDPOINT": "pIC50", "READING": "< 4.70"}
{"COMPOUND": "CN(C)CCNc1ccc(-c2ccccc2)c2c1C(=O)NC2", "RECORDED ENDPOINT": "pIC50", "READING": "< 4.70"}

---

TGT: TNIK (Homo sapiens, UniProt Q9UKE5)
Construct: purchased Promega V4158
ASSAY EXPLANATION: ADP-Glo Kinase Assay, inhibition activity on TNIK
Assay type: biochemical
CONDITION DESCRIPTION: read-out: TNIK
pIC50: −log10 of the molar value.

{"CPD SMILES": "O=C(Nc1ccc(-c2ccc3ncccc3c2)c2c1C(=O)NC2)c1ccc(F)cc1", "MODIFIER SIGN": "<", "pIC50": 4.70}
{"CPD SMILES": "COc1cccc(-c2ccc(NC(=O)c3ccccc3)c3c2CNC3=O)c1F", "MODIFIER SIGN": "<", "pIC50": 4.70}
{"CPD SMILES": "Nc1ccc(-c2ccncc2)c2c1C(=O)NC2", "MODIFIER SIGN": "<", "pIC50": 4.70}
{"CPD SMILES": "O=C1NCc2c(-c3ccccc3)ccc(NCCN3CCCCC3)c21", "MODIFIER SIGN": "<", "pIC50": 4.70}
{"CPD SMILES": "COc1ccccc1-c1ccc(NC(=O)c2ccc(F)cc2)c2c1CNC2=O", "MODIFIER SIGN": "=", "pIC50": 5.80}
{"CPD SMILES": "O=C(Nc1ccc(-c2ccccc2)c2c1C(=O)NC2)c1ccc(OCCN2CCOCC2)cc1", "MODIFIER SIGN": "=", "pIC50": 5.94}
{"CPD SMILES": "COCCCNc1ccc(C(=O)Nc2ccc(-c3cccnc3OC)c3c2C(=O)NC3)cc1", "MODIFIER SIGN": "=", "pIC50": 6.41}
{"CPD SMILES": "COc1ccccc1-c1ccc(NC(=O)c2ccc(NCCCN3CCCCC3)cc2)c2c1CNC2=O", "MODIFIER SIGN": "=", "pIC50": 6.72}
{"CPD SMILES": "CN(C)CCCNc1ccc(C(=O)Nc2ccc(Nc3ccccc3)c3c2C(=O)NC3)cc1", "MODIFIER SIGN": "=", "pIC50": 6.85}
{"CPD SMILES": "O=C(Nc1ccc(Br)c2c1C(=O)NCC2)c1ccc(NCCN2CCCC2)cc1", "MODIFIER SIGN": "=", "pIC50": 5.01}
{"CPD SMILES": "O=C(Nc1ccc(-c2ccc(Cl)cc2Cl)c2c1C(=O)NC2)c1ccccc1", "MODIFIER SIGN": "<", "pIC50": 4.70}
{"CPD SMILES": "O=C(Nc1ccc(Nc2ccccc2)c2c1C(=O)NC2)c1ccc(NC[C@H](O)CN2CCCCC2)cc1", "MODIFIER SIGN": "=", "pIC50": 7.06}
{"CPD SMILES": "COc1ccc(S(=O)(=O)Nc2ccc(-c3ccccc3)c3c2C(=O)NC3)cc1", "MODIFIER SIGN": "<", "pIC50": 4.70}
{"CPD SMILES": "O=C(Nc1ccc(-c2cccc(Cl)c2F)c2c1C(=O)NC2)c1ccccc1", "MODIFIER SIGN": "<", "pIC50": 4.70}
{"CPD SMILES": "O=C(Nc1ccc(Nc2cccc(F)c2)c2c1C(=O)NC2)c1ccccc1", "MODIFIER SIGN": "=", "pIC50": 5.77}
{"CPD SMILES": "O=C(Nc1ccc(Nc2cc(C(F)(F)F)cc(C(F)(F)F)c2)c2c1C(=O)NC2)c1ccc(F)cc1", "MODIFIER SIGN": "<", "pIC50": 4.70}
{"CPD SMILES": "O=C(Nc1ccc(S(=O)(=O)c2ccccc2)c2c1C(=O)NC2)c1ccccc1", "MODIFIER SIGN": "<", "pIC50": 4.70}
{"CPD SMILES": "O=C(Nc1ccc(-c2ccco2)c2c1C(=O)NC2)c1ccc(NCCN2CCCC2)cc1", "MODIFIER SIGN": "=", "pIC50": 6.18}
{"CPD SMILES": "COc1ccccc1-c1ccc(NC(=O)c2ccc(N3CCOCC3)cc2)c2c1CNC2=O", "MODIFIER SIGN": "=", "pIC50": 6.43}
{"CPD SMILES": "COc1cccc(-c2ccc(NC(=O)c3ccc(F)cc3)c3c2CCNC3=O)c1OC", "MODIFIER SIGN": "=", "pIC50": 5.09}
{"CPD SMILES": "CCc1ccc(NC(=O)c2ccccc2)c2c1CNC2=O", "MODIFIER SIGN": "=", "pIC50": 5.74}
{"CPD SMILES": "CCCCOc1ccccc1-c1ccc(NC(=O)c2ccccc2)c2c1CNC2=O", "MODIFIER SIGN": "<", "pIC50": 4.70}
{"CPD SMILES": "COCCNc1ccc(C(=O)Nc2ccc(-c3ccccc3)c3c2C(=O)NC3)cc1", "MODIFIER SIGN": "=", "pIC50": 6.30}
{"CPD SMILES": "CC(=O)c1cccc(-c2ccc(NC(=O)c3ccccc3)c3c2CNC3=O)c1", "MODIFIER SIGN": "<", "pIC50": 4.70}
{"CPD SMILES": "CC(C)c1ccc(-c2ccc(NC(=O)c3ccccc3)c3c2CNC3=O)cc1", "MODIFIER SIGN": "<", "pIC50": 4.70}
{"CPD SMILES": "O=C(Nc1ccc(-c2cn[nH]c2)c2c1C(=O)NC2)c1ccccc1", "MODIFIER SIGN": "=", "pIC50": 5.34}
{"CPD SMILES": "CCCc1ccc(NC(=O)c2ccc(F)cc2)c2c1CNC2=O", "MODIFIER SIGN": "<", "pIC50": 4.70}

---

TGT: TNIK (Homo sapiens)
Construct: purchased Promega V4158
ASSAY EXPLANATION: ADP-Glo Kinase Assay, inhibition activity on TNIK
Assay type: biochemical
CONDITION DESCRIPTION: read-out: TNIK
Protocol: The inhibition activities on TNIK, IKKε and TBK1 were measured by a luminometer, TNIK/IKKε/TBK1 Kinase Enzyme System (Promega, Ca# V4158; Invitrogen, PR8031B, Promega, Ca# V3991) and ADP-Glo Kinase Assay using ADP-Glo™ Kinase Analysis Kit (Promega, Ca# V9101) and a kinase reaction buffer [40 mM Tris(pH 7.5), 20 mM MgCl2, 0.1 mg/mL BSA] in accordance with the manufacturer's protocol.
We'd kindly ask you to apply these IC50 classes: b0 = under 0.3 µM, b1 = from 0.3 µM up to 0.5 µM, b2 = 0.5 µM and over

{"CPD SMILES": "CCCc1ccc(-c2ccc(NC(=O)c3ccccc3)c3c2CNC3=O)cc1", "QUALITATIVE LABEL": "b2"}
{"CPD SMILES": "O=C(Nc1ccc(-c2cccc(OC(F)(F)F)c2)c2c1C(=O)NC2)c1ccccc1", "QUALITATIVE LABEL": "b2"}
{"CPD SMILES": "COc1ccc(C(=O)Nc2ccc(Nc3ccccc3)c3c2C(=O)NC3)cc1", "QUALITATIVE LABEL": "b1"}
{"CPD SMILES": "CN1CCN(CCNc2ccc(C(=O)Nc3ccc(-c4cccs4)c4c3C(=O)NC4)cc2)CC1", "QUALITATIVE LABEL": "b0"}
{"CPD SMILES": "CC(=O)Nc1cccc(-c2ccc(NC(=O)c3ccccc3)c3c2CNC3=O)c1", "QUALITATIVE LABEL": "b2"}
{"CPD SMILES": "O=C(Nc1ccc(Nc2ccccc2)c2c1C(=O)NC2)c1ccc(NCCCO)cc1", "QUALITATIVE LABEL": "b0"}
{"CPD SMILES": "CC(C)c1cccc(-c2ccc(NC(=O)c3ccccc3)c3c2CNC3=O)c1", "QUALITATIVE LABEL": "b2"}
{"CPD SMILES": "O=C(Nc1ccc(Nc2ccccc2)c2c1C(=O)NC2)c1ccc(NC[C@@H](O)CN2CCCCC2)cc1", "QUALITATIVE LABEL": "b0"}
{"CPD SMILES": "O=C(Nc1ccc(Nc2ccccc2)c2c1C(=O)NC2)c1ccc(NCCN2CCCC2)cc1", "QUALITATIVE LABEL": "b0"}
{"CPD SMILES": "COc1cccc(-c2ccc(NC(=O)c3ccc(N4CCOCC4)cc3)c3c2CNC3=O)c1OC", "QUALITATIVE LABEL": "b2"}
{"CPD SMILES": "O=C(Nc1ccc(Nc2ccccc2)c2c1C(=O)NC2)c1ccccc1", "QUALITATIVE LABEL": "b1"}
{"CPD SMILES": "COCCNc1ccc(C(=O)Nc2ccc(-c3ccco3)c3c2C(=O)NC3)cc1", "QUALITATIVE LABEL": "b1"}
{"CPD SMILES": "CCc1cccc(-c2ccc(NC(=O)c3ccccc3)c3c2CNC3=O)c1", "QUALITATIVE LABEL": "b2"}
{"CPD SMILES": "O=C(Nc1ccc(Br)c2c1C(=O)NC2)c1ccc(NCCN2CCCCC2)cc1", "QUALITATIVE LABEL": "b2"}
{"CPD SMILES": "Cc1cccc(Nc2ccc(NC(=O)c3ccc(NCCCN4CCCC4)cc3)c3c2CNC3=O)c1C", "QUALITATIVE LABEL": "b1"}
{"CPD SMILES": "CN(C)CCNc1ccc(C(=O)Nc2ccc(-c3cccs3)c3c2C(=O)NC3)cc1", "QUALITATIVE LABEL": "b1"}
{"CPD SMILES": "O=C(Nc1ccc(-c2cccc(F)c2F)c2c1C(=O)NC2)c1ccccc1", "QUALITATIVE LABEL": "b2"}
{"CPD SMILES": "O=C(Nc1ccc(-c2ccccc2)c2c1C(=O)NC2)NC1CCCC1", "QUALITATIVE LABEL": "b2"}
{"CPD SMILES": "O=C(Nc1ccc(-c2cccc3ncoc23)c2c1C(=O)NC2)c1ccc(NCCN2CCCCCC2)cc1", "QUALITATIVE LABEL": "b0"}
{"CPD SMILES": "CCCCOc1ccc(-c2ccc(NC(=O)c3ccccc3)c3c2CNC3=O)cc1", "QUALITATIVE LABEL": "b2"}
{"CPD SMILES": "O=C(Nc1ccc(-c2ccccc2)c2c1C(=O)NC2)c1ccc(NCCN2CCCC2)cc1", "QUALITATIVE LABEL": "b1"}
{"CPD SMILES": "O=C(Nc1ccc(-c2ccccc2)c2c1C(=O)NC2)c1ccc(N2CCOCC2)cc1", "QUALITATIVE LABEL": "b2"}
{"CPD SMILES": "COc1ccc(C(=O)Nc2ccc(-c3ccccc3)c3c2C(=O)NC3)c(OC)c1", "QUALITATIVE LABEL": "b2"}
